Target: human RIP1 kinase domain (2-375) (Homo sapiens)
Sequence (Q13546 2-375): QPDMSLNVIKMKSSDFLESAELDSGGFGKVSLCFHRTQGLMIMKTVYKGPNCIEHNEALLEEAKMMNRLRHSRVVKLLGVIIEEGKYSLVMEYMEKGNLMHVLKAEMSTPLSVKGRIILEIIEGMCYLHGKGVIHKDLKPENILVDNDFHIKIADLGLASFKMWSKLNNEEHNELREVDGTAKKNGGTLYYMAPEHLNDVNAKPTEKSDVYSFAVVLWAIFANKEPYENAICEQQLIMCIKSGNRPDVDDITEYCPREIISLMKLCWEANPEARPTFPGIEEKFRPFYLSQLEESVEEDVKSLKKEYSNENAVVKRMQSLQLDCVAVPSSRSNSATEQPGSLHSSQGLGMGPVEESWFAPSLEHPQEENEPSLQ
assay metric: pKi
// scale note: pKi = -log10(conc_M); give the bare number

# annotated cases, reported pKi shown
molecule: CC(C)(C#N)c1nc2n(n1)[C@H](c1ccccc1)C[C@@H]2F (racemic) [Example 103]
pKi: 6.66

molecule: FC(F)CCc1nc2n(n1)[C@H](c1ccccc1)C[C@@H]2F (single isomer, unassigned) [Example 29]
pKi: 7.66

molecule: CCc1nc2n(n1)[C@H](c1ccccc1)C[C@@H]2F [Example 36]
pKi: 7.31

// below: pKi requested for another molecule
Item: O=Cc1cnn(-c2nc3n(n2)[C@H](c2ccccc2)C[C@@H]3F)c1 [Example 40] | pKi: 7.28

###

Target: human RIP1 kinase domain (2-375) (Homo sapiens, UniProt Q13546)
Sequence (Q13546 2-375): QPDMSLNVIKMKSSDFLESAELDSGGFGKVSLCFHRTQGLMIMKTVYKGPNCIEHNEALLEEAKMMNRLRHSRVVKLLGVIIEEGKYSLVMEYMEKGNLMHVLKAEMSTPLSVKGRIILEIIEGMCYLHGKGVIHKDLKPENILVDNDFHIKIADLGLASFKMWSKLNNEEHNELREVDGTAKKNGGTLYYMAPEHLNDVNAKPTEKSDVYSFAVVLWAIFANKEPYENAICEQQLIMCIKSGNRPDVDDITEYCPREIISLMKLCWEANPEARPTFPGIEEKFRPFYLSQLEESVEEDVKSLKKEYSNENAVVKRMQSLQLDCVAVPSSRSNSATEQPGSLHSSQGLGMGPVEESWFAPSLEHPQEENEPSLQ
Rule: Ki below 0.1 µM gives yes, anything at or above gives no.

Below are worked cases with known answers.
molecule: N#Cc1cccc2c1cnn2-c1nc2n(n1)[C@H](c1ccccc1)C[C@@H]2F (single isomer, unassigned) [Example 72]
assigned class: yes

molecule: CC[C@@](C)(F)c1nc2n(n1)[C@H](c1ccccc1)C[C@@H]2F (single isomer, unassigned) [Example 32]
assigned class: yes

molecule: O[C@H](c1nc2n(n1)[C@H](c1ccccc1)C[C@@H]2F)C1CC1 (single isomer, unassigned) [Example 34]
assigned class: no

molecule: N#CC1CC1c1nc2n(n1)[C@H](c1ccccc1)C[C@@H]2F (mixture of isomers) [Example 16]
assigned class: yes

molecule: O[C@H](c1cc2n(n1)[C@@H](c1ccccc1)C[C@H]2F)C1CC1 (single isomer, unassigned) [Example 115]
assigned class: yes

molecule: N#C[C@H]1C[C@@H]1C(F)(F)c1nc2n(n1)[C@H](c1ccccc1)C[C@@H]2F (mixture of isomers) [Example 113]
assigned class: yes

[in] Regarding C[C@@H]1C[C@H]1c1nc2n(n1)[C@H](c1ccccc1)C[C@@H]2F (single isomer, unassigned) [Example 96] , kindly confirm whether its Ki is beneath 0.1 µM.
[out] yes

[in] Is the reported Ki for N#CC(F)c1nc2n(n1)[C@H](c1ccccc1)C[C@@H]2F (stereo partly drawn) [Example 48] strictly below 0.1 µM?
[out] no

[in] Lab note: confirm whether the reported Ki for this molecule is below 0.1 µM, equality not counting. molecule: CC[C@H](F)c1nc2n(n1)[C@H](c1ccccc1)C[C@@H]2F (racemic) [Example 8]
[out] yes

[in] Determine whether this molecule shows Ki lower than 0.1 µM (ties excluded): N#CCOCc1nc2n(n1)[C@H](c1ccccc1)C[C@@H]2F (racemic) [Example 51]
[out] no

[in] State whether 0.1 µM exceeds Ki recorded for Cc1nn(-c2nc3n(n2)[C@H](c2ccccc2)C[C@@H]3F)cc1C#N (single isomer, unassigned) [Example 92] .
[out] no

[in] # strict comparison: is reported Ki < 0.1 µM? input = F[C@H]1C[C@@H](c2ccccc2)n2nc(CCC(F)(F)F)nc21 (single isomer, unassigned) [Example 18]
[out] yes

[in] I wonder whether Cn1ccc(-c2nc3n(n2)[C@H](c2ccccc2)C[C@@H]3F)n1 (single isomer, unassigned) [Example 19] has Ki below 0.1 µM. Can you tell?
[out] no

[in] Regarding F[C@H]1C[C@@H](c2ccccc2)n2nc(-n3cc(Cl)cn3)nc21 [Example 60] , kindly confirm whether its Ki is beneath 0.1 µM.
[out] yes

[in] Answer whether the molecule Cn1cc(/C=C/c2nc3n(n2)[C@H](c2ccccc2)C[C@@H]3F)cn1 (single isomer, unassigned) [Example 49] has Ki strictly less than 0.1 µM
[out] no

[in] Strictly below 0.1 µM: is that where Ki of Fc1ccccc1[C@@H]1CCc2nc(CC3CC3)nn21 (single isomer, unassigned) [Example 98] sits?
[out] no

[in] Hello, is Ki of the following molecule strictly smaller than 0.1 µM? CCc1cnn(-c2nc3n(n2)[C@H](c2ccccc2)C[C@@H]3F)c1 (single isomer, unassigned) [Example 59]
[out] yes

[in] Lab note: Ki threshold 0.1 µM. Does this molecule come in strictly under it? Fc1ccccc1[C@@H]1C[C@H](F)c2nc(CC3CC3(F)F)nn21 (stereo partly drawn) [Example 112]
[out] yes

[in] Answer whether the molecule N#CCc1nc2n(n1)[C@H](c1ccccc1)C[C@@H]2F (racemic) [Example 102] has Ki strictly less than 0.1 µM
[out] no

[in] Lab note: Ki threshold 0.1 µM. Does this molecule come in strictly under it? F[C@H]1C[C@@H](c2ccccc2)n2nc(-n3nnc4c3CCCC4)nc21 (racemic) [Example 86]
[out] yes
